# Tgt: T1, human CD24 on cells (human, UniProt P25063 27-59)
# T1 construct: whole, on cells; One molecule for all cell lines; the cell line is named under assay or readout; also called cell surface CD24; cell-based CD24
# T1 chain (looked up): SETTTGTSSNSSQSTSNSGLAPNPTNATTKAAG
# Assay info: flow cytometry (GMFI), SKOV3 cells; EC50 table under the graphs [Cont'd) B]
# EC50 annotations
Be sure to follow the number with its unit.

Guide cases for EC50, answers given:
>>> reported("VH4 + VL2 (humanized 4451) (antibody, V domains shown, IgG expressed in HEK293) VH: QVQLVQSGAEVKKPGASVKVSCKASGYDFTGYHMNWVKQAPGQGLEWIGEINPITSDKTFNQKFKSRATMTVDRSISTAYMELSRLRSDDTAVYYCARRDYGTSLDYWGQGTTVTVSS VL: DIQLTQSPSFLSASVGDRVTITCRASKSISKYLAWYQQKPGKAPRLLIYAGSTLHSGVPSRFRGSGSGTEFTLTISSLQPEDFATYYCQQHNEYPITFGQGTKLEIK")
"0.43 µg/mL"
>>> reported("VH3 + VL3 (humanized 4451) (antibody, V domains shown, IgG expressed in HEK293) VH: QVQLVQSGAEVKKPGASVKVSCKASGYDFTGYHMNWVRQAPGQGLEWIGEINPITSDKTFNQKFKSRATMTVDTSISTAYMELSRLRSDDTAVYYCARRDYGTSLDYWGQGTTVTVSS VL: DIQLTQSPSFLSASVGDRVTITCRASKSISKYLAWYQQKPGKAPKLLIYAGSTLHSGIPSRFRGSGSGTEFTLTISSLQPEDFATYYCQQHNEYPITFGQGTKLEIK")
"0.42 µg/mL"
>>> reported("VH1 + VL4 (humanized 4451) (antibody, V domains shown, IgG expressed in HEK293) VH: QVQLVQSGAEVKKPGASVKVSCKASGYDFTGYHMNWVRQAPGQGLEWMGEINPITSDKTFNQKFKSRVTMTRDTSISTAYMELSRLRSDDTAVYYCARRDYGTSLDYWGQGTTVTVSS VL: DIQLTQSPSFLSASVGDRVTIYCRASKSISKYLAWYQQKPGKAPRLLIYAGSTLHSGIPSRFRGSGSGTEFTLTISSLQPEDFATYYCQQHNEYPITFGQGTKLEIK")
"0.43 µg/mL"

Ask: // Input: VH + VL (4451 parental variable regions, Table 7) (antibody, V domains shown) VH: EVQLQQSGPELVKPGASVKISCKASGYDFTGYHMNWVKQSPEKSLEWIGEINPITSDKTFNQKFKSKATLTVDRSSSTAYMYLKSLTSEDSAVYYCARRDYGTSLDYWGQGTTLTVSS VL: DVQITQSPSYLAASPGETITIYCRASKSISKYLAWYQEKPEKTNRLLIYAGSTLHSGIPSRFRGSGSGKDFTLTVSGLEPEDFAMYYCQQHNEYPITFGAGTKLELK . Output its EC50 only.
Result: 0.43 µg/mL

Ask: // Input: VH2 + VL3 (humanized 4451) (antibody, V domains shown, IgG expressed in HEK293) VH: QVQLVQSGAEVKKPGASVKVSCKASGYDFTGYHMNWVRQAPGQGLEWIGEINPITSDKTFNQKFKSRVTMTVDTSISTAYMELSRLRSDDTAVYYCARRDYGTSLDYWGQGTTVTVSS VL: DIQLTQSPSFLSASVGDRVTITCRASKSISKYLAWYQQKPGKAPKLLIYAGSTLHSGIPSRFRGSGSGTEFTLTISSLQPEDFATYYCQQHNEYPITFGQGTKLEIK . Output its EC50 only.
Result: 0.42 µg/mL

Ask: // Input: VH3 + VL1 (humanized 4451) (antibody, V domains shown, IgG expressed in HEK293) VH: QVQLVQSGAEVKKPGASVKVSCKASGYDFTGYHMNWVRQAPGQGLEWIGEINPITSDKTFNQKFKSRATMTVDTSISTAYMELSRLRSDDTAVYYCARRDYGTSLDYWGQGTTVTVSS VL: DIQLTQSPSFLSASVGDRVTITCRASKSISKYLAWYQQKPGKAPKLLIYAGSTLHSGVPSRFSGSGSGTEFTLTISSLQPEDFATYYCQQHNEYPITFGQGTKLEIK . Output its EC50 only.
Result: 0.42 µg/mL

Ask: // Input: VH4 + VL3 (humanized 4451) (antibody, V domains shown, IgG expressed in HEK293) VH: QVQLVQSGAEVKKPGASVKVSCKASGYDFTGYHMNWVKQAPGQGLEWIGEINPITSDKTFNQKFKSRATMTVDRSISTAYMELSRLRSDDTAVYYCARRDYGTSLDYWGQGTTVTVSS VL: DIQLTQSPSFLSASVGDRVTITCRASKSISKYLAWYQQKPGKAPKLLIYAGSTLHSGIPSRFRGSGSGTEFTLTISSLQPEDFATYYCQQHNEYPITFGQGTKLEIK . Output its EC50 only.
Result: 0.44 µg/mL

Ask: // Input: VH2 + VL1 (humanized 4451) (antibody, V domains shown, IgG expressed in HEK293) VH: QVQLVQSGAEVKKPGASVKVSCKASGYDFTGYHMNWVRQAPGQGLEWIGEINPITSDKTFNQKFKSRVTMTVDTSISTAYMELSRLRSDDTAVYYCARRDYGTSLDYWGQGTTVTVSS VL: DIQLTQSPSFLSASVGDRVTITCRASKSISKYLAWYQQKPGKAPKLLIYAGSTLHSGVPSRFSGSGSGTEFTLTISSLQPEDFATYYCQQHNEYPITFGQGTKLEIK . Output its EC50 only.
Result: 0.45 µg/mL

Ask: // Input: VH1 + VL2 (humanized 4451) (antibody, V domains shown, IgG expressed in HEK293) VH: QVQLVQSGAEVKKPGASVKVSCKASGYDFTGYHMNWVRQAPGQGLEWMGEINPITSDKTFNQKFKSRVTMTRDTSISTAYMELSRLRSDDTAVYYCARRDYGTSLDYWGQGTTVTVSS VL: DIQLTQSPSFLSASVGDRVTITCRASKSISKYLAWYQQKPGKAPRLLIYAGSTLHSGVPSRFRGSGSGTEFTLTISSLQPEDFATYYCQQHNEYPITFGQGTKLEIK . Output its EC50 only.
Result: 0.38 µg/mL

Ask: // Input: VH3 + VL4 (humanized 4451) (antibody, V domains shown, IgG expressed in HEK293) VH: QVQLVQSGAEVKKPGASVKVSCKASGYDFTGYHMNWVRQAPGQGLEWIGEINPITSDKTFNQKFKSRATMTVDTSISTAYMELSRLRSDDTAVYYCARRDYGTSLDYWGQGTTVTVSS VL: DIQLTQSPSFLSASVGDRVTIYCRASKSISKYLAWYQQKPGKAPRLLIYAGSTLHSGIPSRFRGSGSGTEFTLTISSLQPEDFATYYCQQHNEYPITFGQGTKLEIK . Output its EC50 only.
Result: 0.42 µg/mL

Ask: // Input: VH4 + VL1 (humanized 4451) (antibody, V domains shown, IgG expressed in HEK293) VH: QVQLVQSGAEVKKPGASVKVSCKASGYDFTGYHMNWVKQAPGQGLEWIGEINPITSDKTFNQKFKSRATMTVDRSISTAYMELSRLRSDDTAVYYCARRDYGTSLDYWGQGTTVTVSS VL: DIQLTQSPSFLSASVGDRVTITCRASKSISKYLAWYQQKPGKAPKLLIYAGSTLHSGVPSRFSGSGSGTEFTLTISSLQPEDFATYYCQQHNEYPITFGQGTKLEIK . Output its EC50 only.
Result: 0.43 µg/mL
